The measurements presented in this section are drawn from patent US6358978B1.

biological target: IκB kinase (Homo sapiens, UniProt O14920+O15111); construct: The kinase was purified from HeLa cell extracts; endogenous in cells; assay: IκB kinase filter test; settings: kinase purified from HeLa cell extracts; 50 μM ATP; substrate peptide 20 μM
Sequence (O14920 whole entry): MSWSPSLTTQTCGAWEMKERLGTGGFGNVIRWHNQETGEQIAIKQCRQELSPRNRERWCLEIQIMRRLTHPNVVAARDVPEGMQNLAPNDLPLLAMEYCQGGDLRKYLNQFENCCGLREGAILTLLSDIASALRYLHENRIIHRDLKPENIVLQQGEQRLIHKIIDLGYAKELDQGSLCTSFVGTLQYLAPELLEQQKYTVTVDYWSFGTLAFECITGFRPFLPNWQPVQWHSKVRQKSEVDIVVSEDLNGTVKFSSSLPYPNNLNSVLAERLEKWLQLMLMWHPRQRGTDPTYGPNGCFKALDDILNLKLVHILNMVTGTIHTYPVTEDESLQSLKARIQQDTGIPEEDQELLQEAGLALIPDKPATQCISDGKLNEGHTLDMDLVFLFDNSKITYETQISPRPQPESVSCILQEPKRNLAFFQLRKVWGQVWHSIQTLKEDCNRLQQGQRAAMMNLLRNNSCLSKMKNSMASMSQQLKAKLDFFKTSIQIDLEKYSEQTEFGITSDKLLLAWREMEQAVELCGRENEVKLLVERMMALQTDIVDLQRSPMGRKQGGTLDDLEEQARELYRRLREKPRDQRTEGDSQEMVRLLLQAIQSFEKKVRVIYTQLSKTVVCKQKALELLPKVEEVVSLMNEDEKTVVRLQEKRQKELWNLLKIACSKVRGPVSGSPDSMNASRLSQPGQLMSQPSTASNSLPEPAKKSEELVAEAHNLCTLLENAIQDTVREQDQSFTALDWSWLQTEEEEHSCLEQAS
Sequence (O15111 whole entry): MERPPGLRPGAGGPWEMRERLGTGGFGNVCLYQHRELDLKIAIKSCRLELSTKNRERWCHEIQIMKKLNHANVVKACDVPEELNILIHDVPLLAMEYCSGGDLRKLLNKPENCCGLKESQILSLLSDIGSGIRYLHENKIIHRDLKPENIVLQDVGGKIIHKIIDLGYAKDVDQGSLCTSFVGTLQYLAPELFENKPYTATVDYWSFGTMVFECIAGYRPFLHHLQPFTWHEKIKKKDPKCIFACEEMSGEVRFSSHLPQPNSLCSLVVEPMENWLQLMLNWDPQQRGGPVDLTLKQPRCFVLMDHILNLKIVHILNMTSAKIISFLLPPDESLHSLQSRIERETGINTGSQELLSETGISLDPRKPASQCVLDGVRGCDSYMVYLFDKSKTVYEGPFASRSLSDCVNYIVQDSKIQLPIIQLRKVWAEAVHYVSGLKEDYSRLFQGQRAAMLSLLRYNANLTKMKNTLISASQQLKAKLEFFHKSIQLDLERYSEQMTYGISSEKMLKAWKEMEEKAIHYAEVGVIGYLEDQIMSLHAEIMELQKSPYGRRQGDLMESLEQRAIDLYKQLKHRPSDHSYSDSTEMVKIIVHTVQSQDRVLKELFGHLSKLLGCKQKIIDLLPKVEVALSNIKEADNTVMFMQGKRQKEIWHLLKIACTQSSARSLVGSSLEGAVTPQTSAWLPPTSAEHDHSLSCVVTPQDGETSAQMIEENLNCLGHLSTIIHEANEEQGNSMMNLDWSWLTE
Sequence (Q9Y6K9 whole entry partner): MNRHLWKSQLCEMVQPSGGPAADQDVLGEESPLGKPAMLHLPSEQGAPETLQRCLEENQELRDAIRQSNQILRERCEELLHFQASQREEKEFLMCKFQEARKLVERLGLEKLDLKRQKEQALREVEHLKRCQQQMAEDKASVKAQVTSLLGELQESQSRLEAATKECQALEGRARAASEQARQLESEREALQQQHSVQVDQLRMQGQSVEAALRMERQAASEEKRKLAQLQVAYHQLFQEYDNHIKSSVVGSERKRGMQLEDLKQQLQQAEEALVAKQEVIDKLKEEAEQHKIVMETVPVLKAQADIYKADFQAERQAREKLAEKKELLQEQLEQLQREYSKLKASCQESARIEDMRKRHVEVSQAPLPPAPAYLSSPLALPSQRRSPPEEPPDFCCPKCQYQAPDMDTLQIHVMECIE
Reported property: IC50

Cpd smiles	Reported property	Observed
NC(=O)[C@H](Cc1ccc(C(=O)O)cc1)NC(=O)c1ccc2nc(-c3ccncc3)[nH]c2c1	IC50	7 µM
CSCC[C@H](NC(=O)c1ccc2[nH]c(-c3ccncc3)nc2c1)C(N)=O	IC50	1 µM
O=C(N[C@@H](Cc1ccc(F)cc1)C(=O)O)c1ccc2nc(-c3ccncc3)[nH]c2c1	IC50	22 µM
CC(C)(C)c1ccccc1SC[C@H](NC(=O)c1ccc2[nH]c(-c3ccncc3)nc2c1)C(=O)O	IC50	25 µM

---

Listed next: entries and their corresponding melting point.
Where a name gives a salt, the structure may show the parent alone.

Compound	melting point
O=C(N[C@@H](CCc1ccccc1)c1nnco1)c1ccc2[nH]c(-c3ccncc3)nc2c1	103 °C (dec.)
O=C(N[C@@H](CCc1ccccc1)c1nnc(NS(=O)(=O)c2ccccc2)o1)c1ccc2[nH]c(-c3ccncc3)nc2c1	220 °C (dec.)
CCN(C[C@H](NC(=O)c1ccc2[nH]c(-c3ccncc3)nc2c1)C(=O)O)c1ccccc1 (as salt: trifluoroacetate)	~ 258 °C (dec.)
Nc1nnc([C@H](CCc2ccccc2)NC(=O)c2ccc3[nH]c(-c4ccncc4)nc3c2)o1	160 °C (dec.)

---

target: IκB kinase (Homo sapiens, UniProt O14920+O15111); construct: The kinase was purified from HeLa cell extracts; endogenous in cells; assay: IκB kinase filter test; conditions: kinase purified from HeLa cell extracts; 50 μM ATP; substrate peptide 20 μM
The threshold is 4000 nM. Values of IC50 beneath it are tagged YES; values meeting or exceeding it are tagged NO.

Compound	Class name
N#Cc1ccc(C[C@H](NC(=O)c2ccc3nc(-c4ccncc4)[nH]c3c2)C(N)=O)cc1 [Example 16]	NO
Nc1nnc([C@H](CCc2ccccc2)NC(=O)c2ccc3[nH]c(-c4ccncc4)nc3c2)o1 [Example 179]	YES
O=C(N[C@@H](CCc1ccccc1)c1nnc(NS(=O)(=O)c2ccccc2)o1)c1ccc2[nH]c(-c3ccncc3)nc2c1 [Example 191]	YES
CNC(=O)Nc1nnc([C@H](CCc2ccccc2)NC(=O)c2ccc3[nH]c(-c4ccncc4)nc3c2)o1 [Example 192]	YES
O=C(N[C@@H](Cc1ccc(F)cc1F)C(=O)O)c1ccc2nc(-c3ccncc3)[nH]c2c1 [Example 5]	NO
O=C(N[C@@H](CCc1ccccc1)c1nnco1)c1ccc2[nH]c(-c3ccncc3)nc2c1 [Example 180]	YES
NC(=O)[C@H](Cc1cccs1)NC(=O)c1ccc2nc(-c3ccncc3)[nH]c2c1 [Example 11]	NO

---

test system: protein kinase C (PKC); assay: PKC kinase test (Upstate Biotechnology kit); format: biochemical; settings: substance concentration of 100 μM; ATP 50 μM
Would you mind classing the entries by PKC % inhibition? Ranges: Low: < 10%; Medium: ≥ 10% and < 20%; High: ≥ 20%

Cpd smiles	Class name
NC(=O)[C@H](Cc1cccs1)NC(=O)c1ccc2nc(-c3ccncc3)[nH]c2c1	Medium
NC(=O)[C@H](Cc1ccc(C(=O)O)cc1)NC(=O)c1ccc2nc(-c3ccncc3)[nH]c2c1	Low
NC(=O)[C@H](Cc1cccc(C(F)(F)F)c1)NC(=O)c1ccc2nc(-c3ccncc3)[nH]c2c1	Low
CSCC[C@H](NC(=O)c1ccc2[nH]c(-c3ccncc3)nc2c1)C(N)=O	Medium
NC(=O)[C@H](Cc1ccc2ccccc2n1)NC(=O)c1ccc2nc(-c3ccncc3)[nH]c2c1	High
O=C(N[C@@H](Cc1ccc(F)cc1F)C(=O)O)c1ccc2nc(-c3ccncc3)[nH]c2c1	Medium
N#Cc1ccc(C[C@H](NC(=O)c2ccc3nc(-c4ccncc4)[nH]c3c2)C(N)=O)cc1	Medium
O=C(N[C@H](Cc1ccc(Cl)cc1)C(=O)O)c1ccc2nc(-c3ccncc3)[nH]c2c1	High
O=C(N[C@@H](Cc1ccc(F)cc1)C(=O)O)c1ccc2nc(-c3ccncc3)[nH]c2c1	Medium
NC(=O)[C@H](Cc1cccnc1)NC(=O)c1ccc2nc(-c3ccncc3)[nH]c2c1	Medium
NC(=O)[C@H](Cc1cc(Br)c(O)c(Br)c1)NC(=O)c1ccc2nc(-c3ccncc3)[nH]c2c1	High
CC(C)(C)c1ccccc1SC[C@H](NC(=O)c1ccc2[nH]c(-c3ccncc3)nc2c1)C(=O)O	Low
